System: MCF-7 (estrogen receptor (ER) positive) human breast cancer cells
Assay: MTS antiproliferative/cytotoxicity assay on MCF-7 cells
Conditions: read-out: IC50 MCF-7 72 h; 72 h
observation.type: IC50 (µM)
Answers are plain numbers, in µM.

# compound, observation.type, result.number
rows = [
    ("COc1ccc(C(O)(c2ccc(OC)c(C=O)c2)c2ccc(OC)c(C=O)c2)cc1C=O", "IC50", 24.3),
    ("COc1cc(C(CO)C(c2ccc(O)c(OC)c2)c2ccc(O)c(OC)c2)ccc1O (centres unmarked) [QUEBECOL SYNTHETIC]", "IC50", 104),
]

Take each entry in turn and give its IC50.
1. CCOC(=O)C(c1ccc(OCc2ccccc2)c(OC)c1)C(c1ccc(OCc2ccccc2)c(OC)c1)c1ccc(OCc2ccccc2)c(OC)c1 (centres unmarked)
2. COc1ccc(C(O)(c2ccc(OC)c(O)c2)c2ccc(OC)c(O)c2)cc1O
3. COc1cc(C(O)c2ccc(OCc3ccccc3)c(OC)c2)ccc1OCc1ccccc1
4. COc1ccc(C(O)(c2ccc(OC)c(Cl)c2)c2ccc(OC)c(Cl)c2)cc1Cl
5. COc1cc(C(O)c2ccccc2OC)ccc1OCc1ccccc1 (centres unmarked)
6. COc1ccc(C(O)(c2ccc(OC)c(F)c2)c2ccc(OC)c(F)c2)cc1F
7. COC(=O)c1cc(C(O)(c2ccc(O)c(C(=O)OC)c2)c2ccc(O)c(C(=O)OC)c2)ccc1O
8. OCc1cc(CCCCCCCCCCCCc2ccc(O)c(CO)c2)ccc1O

[188, 152, 98.1, 162, 185, 61.3, 174, 183]

Reported IC50 for `COc1ccc(C(O)(c2ccc(OC)c(Br)c2)c2ccc(OC)c(Br)c2)cc1Br` was 156
